- ASSAY PROTOCOL: Pharmacokinetic study after oral dosing, rat
- Type: in vivo, SD Rat
- RUN PARAMETERS: male, SD (Sprague-Dawley), rat, in vivo, po, 30 mg/kg, oral; suspension in 0.5% methocel + 0.1% tween 80 in water; SD Rat male; 30 mg/kg; particle size D50 = 5.1 μm; Fed; 5 mL/kg
QUANTITY: Cmax

INSERT INTO results (molecule, quantity, reported_measurement) VALUES
  ('COc1cc(C)c2[nH]ccc2c1CN1CCC2(C[C@H]1c1ccc(C(=O)O)cc1)CC(F)(F)C2 [Form A]', 'Cmax', '6.1 µM');

====

- ASSAY PROTOCOL: Pharmacokinetic study after oral dosing, rat
- Type: in vivo, SD Rat
- RUN PARAMETERS: male, SD (Sprague-Dawley), rat, in vivo, po, 300 mg/kg, oral; solution in 20% kleptose in water; SD Rat male; 300 mg/kg; Fed; 10 mL/kg; read-out: C24 h
QUANTITY: concentration at 24 h (µM)

INSERT INTO measurements (smiles_structure, quantity, reported_measurement) VALUES
  ('COc1cc(C)c2[nH]ccc2c1CN1CCC2(C[C@H]1c1ccc(C(=O)O)cc1)CC(F)(F)C2', 'concentration at 24 h', 18);

====

- ASSAY PROTOCOL: Solubility in water and biorelevant buffers at 25° C.
- Assay type: physicochemical
- RUN PARAMETERS: fassgf or other biorelevant, thermodynamic from solid; FaSSGF, pH 1.6; 25° C.; 24 h; read-out: Solubility (mg/mL) S
- Experimental: Purchase sodium taurocholate (NaTC) from supplier. Account for assay. Add amount corresponding to 3 mM to PBS V1. Stir until dissolved. Equilibrate 1 h at 25° C. or 37° C. before use. Dispose after 48 h. Purchase FaSSIF-V2 from supplier (biorelevant.com). Amount added to PBS-V1 according to Table 1. Stir until dissolved. Equilibrate 1 h at 25° C. or 37° C. before use. Dispose after 48 h. Purchase FeSSIF-V2 from supplier (biorelevant.com). Amount added to PBS-V1 according to Table 1. Stir until dissolved. […]
This section presents compounds with their documented solubility at 24 h values.
QUANTITY: solubility at 24 h (mg/mL)

INSERT INTO results (compound, quantity, censoring_qualifier, reported_measurement) VALUES
  ('COc1cc(C)c2[nH]ccc2c1CN1CCC2(C[C@H]1c1ccc(C(=O)O)cc1)CC(F)(F)C2.Cc1ccc(S(=O)(=O)O)cc1 [Form B]', 'solubility at 24 h', '=', 0.49),
  ('COc1cc(C)c2[nH]ccc2c1CN1CCC2(C[C@H]1c1ccc(C(=O)O)cc1)CC(F)(F)C2 [Form A]', 'solubility at 24 h', '>', 2);

====

- ASSAY PROTOCOL: Solubility in Simulated Fluids at 37° C.
- Type: physicochemical
- RUN PARAMETERS: 37 °C, fessif, thermodynamic from solid, FeSSIF, 24 h, read-out: Solubility (mg/mL) 24 h
Recorded solubility at 24 h values for a group of molecules are listed next.
QUANTITY: solubility at 24 h (mg/mL)

INSERT INTO results (molecule, censoring_qualifier, reported_measurement) VALUES
  ('COc1cc(C)c2[nH]ccc2c1CN1CCC2(C[C@H]1c1ccc(C(=O)O)cc1)CC(F)(F)C2.Cl [Form D]', '=', 2.33),
  ('COc1cc(C)c2[nH]ccc2c1CN1CCC2(C[C@H]1c1ccc(C(=O)O)cc1)CC(F)(F)C2 [Form A]', '=', 0.31),
  ('COc1cc(C)c2[nH]ccc2c1CN1CCC2(C[C@H]1c1ccc(C(=O)O)cc1)CC(F)(F)C2.Cc1ccc(S(=O)(=O)O)cc1 [Form B]', '>', 2);

The measurements presented in this section are drawn from patent US20260159497A1.
